- tested-system: T1, wild-type human PTH/PTHrP receptor (hP1R-WT) (human, UniProt Q03431 27-593)
- T1 sequence (looked up): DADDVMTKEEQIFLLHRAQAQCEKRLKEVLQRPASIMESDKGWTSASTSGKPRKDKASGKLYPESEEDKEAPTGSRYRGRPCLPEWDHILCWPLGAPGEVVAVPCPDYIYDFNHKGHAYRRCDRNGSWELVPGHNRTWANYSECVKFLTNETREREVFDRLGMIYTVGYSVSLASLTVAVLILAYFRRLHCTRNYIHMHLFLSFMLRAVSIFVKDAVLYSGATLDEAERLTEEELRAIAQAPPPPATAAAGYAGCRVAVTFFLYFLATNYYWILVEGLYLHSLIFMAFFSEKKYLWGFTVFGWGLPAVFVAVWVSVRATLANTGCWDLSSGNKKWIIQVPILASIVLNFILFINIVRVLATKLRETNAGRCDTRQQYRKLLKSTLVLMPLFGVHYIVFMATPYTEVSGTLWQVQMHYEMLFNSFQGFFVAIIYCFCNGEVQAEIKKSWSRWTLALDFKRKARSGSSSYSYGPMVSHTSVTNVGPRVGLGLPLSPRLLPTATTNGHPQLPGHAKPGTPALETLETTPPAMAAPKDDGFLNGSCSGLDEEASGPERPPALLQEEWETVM
- experimental-protocol: cell-based or functional assay
Square brackets hold non-standard residues; d marks the D form. Ends that are not written are not given here. hArg = N=C(N)NCCCC[C@H](N)C(=O)O; Aib = CC(C)(N)C(=O)O
experimental-endpoint: cAMP EMax(obs.) (pmole/well)

binder	experimental-endpoint	reported-value
[Aib]V[Aib]EIQLMHQ[hArg]-NH2 (N-terminus assumed; SMILES CC[C@H](C)[C@H](NC(=O)[C@H](CCC(=O)O)NC(=O)C(C)(C)NC(=O)[C@@H](NC(=O)C(C)(C)N)C(C)C)C(=O)N[C@@H](CCC(N)=O)C(=O)N[C@@H](CC(C)C)C(=O)N[C@@H](CCSC)C(=O)N[C@@H](Cc1c[nH]cn1)C(=O)N[C@@H](CCC(N)=O)C(=O)N[C@@H](CCCCNC(=N)N)C(N)=O, also called 682 [Aib^1,3, M]PTH (1-11); [Aib^1,3,Gln^10,Har^11]PTH(1-11)) [[Aib^1,3,M]PTH(1-11)]	cAMP EMax(obs.)	243
AVAEIQLMHQ[hArg]AKW-NH2 (N-terminus assumed; SMILES CC[C@H](C)[C@H](NC(=O)[C@H](CCC(=O)O)NC(=O)[C@H](C)NC(=O)[C@@H](NC(=O)[C@H](C)N)C(C)C)C(=O)N[C@@H](CCC(N)=O)C(=O)N[C@@H](CC(C)C)C(=O)N[C@@H](CCSC)C(=O)N[C@@H](Cc1c[nH]cn1)C(=O)N[C@@H](CCC(N)=O)C(=O)N[C@@H](CCCCNC(=N)N)C(=O)N[C@@H](C)C(=O)N[C@@H](CCCCN)C(=O)N[C@@H](Cc1c[nH]c2ccccc12)C(N)=O, X = Har; also called [M]PTH(1-14); 621 [M]PTH(1-14)) [[Ala^3,12,Gln^10,Har^11,Trp^14]PTH(1-14)amide]	cAMP EMax(obs.)	270
